Sourced from patent US8772481B2

- System: TNF-α induced IL-8 in human whole blood
- procedureDetails: Inhibition of TNF-α induced IL-8 in 50% human whole blood
- Type: cell-based
- particulars: 1 nM TNF-α, secreted IL-8, read-out: WB TNF/IL8 IC50
pIC50: −log10 of the molar value.

compound: Cc1cc(S(C)(=O)=O)ccc1-c1nncc2nc(Nc3ccc(F)cc3)ccc12 [Example 9]
pIC50: 8.05

compound: Cc1noc(C)c1-c1nncc2nc(Nc3ccc(F)cc3F)ccc12 [Example 15]
pIC50: 8.00

compound: Cc1ccccc1-c1nncc2nc(Oc3ccc(F)cc3)ccc12 [Example 19]
pIC50: 8.23

compound: Fc1ccc(Nc2ccc3c(N4CCOCC4)nncc3n2)c(F)c1 [Example 3]
pIC50: 8.12

compound: Cc1cc(S(C)(=O)=O)ccc1-c1nncc2nc(Oc3ccc(F)cc3F)ccc12 [Example 17]
pIC50: 7.92

compound: Cn1cc(-c2nncc3nc(Nc4ccc(F)cc4F)ccc23)cn1 [Example 12]
pIC50: 7.89
